assay: physchem; conditions: HPLC, Ascentis Express RP Amide column, pH 7.4, elog D, HPLC measured log D, pH 7.4
Field 'label' (enum: MET / NOT MET). Set to MET when chromatographic logD is strictly under 4; else NOT MET.

Below, 2 compounds whose answers are already recorded.
MOLECULE	GROUP_LABEL
COc1ccc(OC)c(S(=O)(=O)N(Cc2ccc(F)cc2)Cc2nc(C)no2)c1	MET
CCN(Cc1ccccc1)S(=O)(=O)c1cc(OC)ccc1OC	MET

Request: Lab log: compare recorded chromatographic logD with 4; is it strictly lower for COc1ccc(OC)c(S(=O)(=O)N(C)Cc2ccc(F)cc2)c1 ?
Response: MET

Request: Lab log: compare recorded chromatographic logD with 4; is it strictly lower for N#Cc1ccccc1S(=O)(=O)N(Cc1ccccc1)Cc1ccccc1 ?
Response: NOT MET

Request: Lab log: compare recorded chromatographic logD with 4; is it strictly lower for COCCN(Cc1ccccc1)S(=O)(=O)c1cc(OC)ccc1OC ?
Response: MET

Request: Lab log: compare recorded chromatographic logD with 4; is it strictly lower for O=S(=O)(c1ccccc1OC(F)(F)F)N(Cc1ccccc1)Cc1ccccc1 ?
Response: NOT MET

Request: Lab log: compare recorded chromatographic logD with 4; is it strictly lower for COc1ccc(S(N)(=O)=O)cc1S(=O)(=O)N(Cc1ccccc1)Cc1ccccc1 ?
Response: MET

Request: Lab log: compare recorded chromatographic logD with 4; is it strictly lower for COc1ccc(C(N)=O)cc1S(=O)(=O)N(Cc1ccccc1)Cc1ccccc1 ?
Response: MET

Request: Lab log: compare recorded chromatographic logD with 4; is it strictly lower for COc1ccc(OC)c(S(=O)(=O)N(Cc2ccc(F)cc2)Cc2cnc(OC)nc2OC)c1 ?
Response: MET
